- Tested on: SK-MEL-5
- Assay explanation: NCI tumour cell line growth inhibition, 48 h
The source made the active and inactive calls. Rule as the data show it: active = GI50 up to about 1.1 µM and inactive = higher.
Labels: active, inactive

Compound	Class assignment
CC(=O)Nc1nnc(S(=O)(=O)NC(=S)Nc2ccc(Cl)cc2)s1	inactive
CN(C)CCOC1(Cc2ccc(Cl)cc2Cl)CCC(C(C)(C)C)CC1 (centres undefined)	inactive
Oc1cc(O)c2c(c1)OC(c1ccc(O)c(O)c1)C(OC1(c3cc(O)c(O)c(O)c3)Oc3cc(O)cc(O)c3C(O)C1O)C2 (centres undefined)	inactive
C=C(CC(NC(=O)c1ccc(C(CC)Cc2cnc3nc(N)nc(N)c3n2)cc1)C(=O)O)C(=O)O (centres undefined)	active
COC(=O)C1=C([C@H]2COC(C)(C)O2)[C@H]2C[C@@H]1[C@@H]1OC(C)(C)O[C@@H]12	inactive
Nc1ccc(C(=O)N/C(=C\C=C\c2ccco2)c2nc3c(O)nc(S)nc3[nH]2)cc1	inactive
O=C1Cc2c(-c3ccccc3)cc(-c3ccc(Cl)cc3)nc2-c2ccccc2N1	inactive
CCCC(=O)NC(Nc1ccc(F)cc1)(C(F)(F)F)C(F)(F)F	active
CCO[C@H]1C[C@@H](c2ccccc2)[C@]2(C)C[C@H](C(=O)OC)ON2O1	inactive
O=C1OC(C2=CC(=O)c3ccccc3C2=O)C(Cl)=C1Cl (centres undefined)	inactive
NC(=O)C1C(=O)Oc2cccnc21 (centres undefined)	inactive
COc1ccc(Br)c(CCCCC(=O)O)c1	inactive
CSC(=S)c1ccc(C(=S)SC)cc1	inactive
C/C(=N\N(C)C)C(CN(C)C)C(c1ccccc1)c1c(O)c2ccccc2oc1=O (centres undefined)	inactive
CC(=O)OCC1(C)C(OC(C)=O)CCC2(C)C(CC(OC(C)=O)C3=CCOC3=O)C(O)(CO)CCC12 (centres undefined)	inactive
COC(=O)Cc1cc(=O)[nH]c2c1C(=O)CCC2	inactive
CO[C@H]1[C@@H](O)[C@@H](O)O[C@@H](O[C@H]2CC[C@@]3(C)[C@H](CC[C@@H]4[C@@H]3[C@H](O)C[C@]3(C)[C@@H](C5=CC(=O)OC5)CC[C@]43O)C2)[C@@H]1O	active
COc1ccc2c(c1)[n+]([O-])c(C(N)=O)c(N)[n+]2[O-]	inactive
Cc1ccc(C[P+]2(c3ccccc3)CCCCC2)cc1.[O-][Cl+3]([O-])([O-])[O-]	inactive

====

- System: KM12
- Assay explanation: NCI tumour cell line growth inhibition, 48 h
The source made the active and inactive calls. Cut-off read from the data, not from the text of the source: active = GI50 up to about 1.1 µM and inactive = higher. Non-standard residues stand in square brackets, D forms with d. Residues, ends and D or L forms follow the SMILES beside them. ξ: configuration not given here. *: point of attachment. ξF = NC(Cc1ccccc1)C(=O)O; Cbz = O=C(OCc1ccccc1)*

Compound	GI50
Cc1cc(NCCCCCCCCCC[n+]2c(C)cc(N)c3ccccc32)c2ccccc2n1	0.2 µM (active)
Cc1ccc(-n2cc(-c3ccc(Cl)cc3)c3c(NNC(=S)NCc4ccccc4)ncnc32)cc1	3.66 µM (inactive)
O=C(NCC(O)CNC(=O)C(F)(F)F)C(F)(F)F	> 100 µM (inactive)
CCOC(=O)/C=C(/N=P(c1ccccc1)(c1ccccc1)c1ccccc1)C(F)(F)F	> 10 µM (inactive)
CN(C)c1cccc(-c2cc(=S)c3cc4c(cc3[nH]2)OCO4)c1	5.13 µM (inactive)
CC[C@]12C=CCN3CC[C@@]4(c5ccc(OC)cc5N(C)[C@H]4[C@@](O)(C(=O)OC)[C@@H]1OC(C)=O)[C@@H]32	> 200 µM (inactive)
CC(C#N)c1cn(S(=O)(=O)c2ccccc2)c2ccccc12 (stereo unspecified)	72.1 µM (inactive)
COC1CCC(CO)OO1 (stereo unspecified)	30.9 µM (inactive)
Cc1nnc(CC#N)n1NC(=O)CC#N	> 100 µM (inactive)
O=C1OC(c2ccccc2)=N/C1=C\c1cccc2ccccc12	> 100 µM (inactive)
O/N=C(\C(=N/O)Nc1ccc(-c2ccc(NC(=N/O)/C(=N\O)c3ccccc3)cc2)cc1)c1ccccc1	19 µM (inactive)
CN1C(=O)C2(c3ccccc31)C1CC3C(CO1)C1C2C3(CO)CN1C#N (stereo unspecified)	> 100 µM (inactive)
CC(C)(/N=N/C(C)(C)C1=NCCN1)C1=NCCN1	> 100 µM (inactive)
O=C(O)CNC(=O)c1ccc(-c2ccccc2)cc1	> 100 µM (inactive)
Clc1ccc(CCNC2(c3cc4ccccc4s3)CCCCC2)cc1Cl	21.8 µM (inactive)
O=[N+]([O-])c1ccc(/C=C/c2ccc(/C=C/c3ccc([N+](=O)[O-])cc3[N+](=O)[O-])cc2)c([N+](=O)[O-])c1	> 100 µM (inactive)
COC(=O)c1cc(OCc2cc(OCc3ccc(Br)cc3)cc(OCc3ccc(Br)cc3)c2)cc(OCc2cc(OCc3ccc(Br)cc3)cc(OCc3ccc(Br)cc3)c2)c1	> 100 µM (inactive)
CCOC(=O)C12C(C(=O)OC)=C(C)N(NC(=O)Nc3ccccc3)C1(N)N(NC(=O)Nc1ccccc1)C(C)=C2C(=O)OC (stereo unspecified)	19.2 µM (inactive)
O=C(O)CN1CCN2CCOCCOCCN(CC1)CCN(CC(=O)O)CC2	> 100 µM (inactive)
CC(=O)Oc1ccc2[nH]c3c(C)c4cccc-4ccc3c2c1	2.44 µM (inactive)
O=C1OC(C2Cc3ccc4c(c3C2=O)CCC4)c2ccccc21 (stereo unspecified)	29.7 µM (inactive)
O=c1cc(-c2ccc(O)cc2)n(C2CC2)c2ccccc12	3.45 µM (inactive)
O=C1c2ccccc2-c2c1c1ccccc1c(=O)n2Cc1ccco1	> 100 µM (inactive)
Cc1cn(C2CC(O)C(Cn3cc(Cn4nc(Br)c(=O)[nH]c4=O)nn3)O2)c(=O)[nH]c1=O (stereo unspecified)	> 100 µM (inactive)
CCOC(=O)C(NS(=O)(=O)c1ccccc1)(C(F)(F)F)P(=O)(OCC(C)C)OCC(C)C (stereo unspecified)	> 100 µM (inactive)
NS(=O)(=O)c1ccc(NC(=O)Nc2ccccc2F)cc1	> 100 µM (inactive)
CCSCN(C)c1nc(N(C)C)nc(N(C)C)n1	35.3 µM (inactive)
COc1ccc(CNc2nc(NCc3ccc(OC)cc3)nc(NC(C)C)n2)cc1	5.07 µM (inactive)
Cc1ccc2c(c1)nc1n2C(c2c(F)cccc2F)SC1 (stereo unspecified)	34.4 µM (inactive)
CCOC(=O)CNC(=O)C(Cc1ccccc1)NC(=O)OCc1ccccc1 (stereo unspecified) (Cbz-[ξF]-Gly-OEt)	> 100 µM (inactive)
Cc1ccccc1SC(/C=C/NNC1=NN=C(c2ccccc2)C(c2ccccc2)N1)c1ccccc1 (stereo unspecified)	28.4 µM (inactive)
CCCOC(=O)C1CCC(=O)N1C(=O)C(Cl)Cl (stereo unspecified)	> 100 µM (inactive)
CCOC(=O)C(NC(=O)c1cccc(Cl)c1)(Nc1ccc(S(=O)(=O)Nc2cc(C)nc(C)n2)cc1)C(F)(F)F (stereo unspecified)	> 100 µM (inactive)
C/C=C(/C)C(=O)O[C@@H]1CCN2CC[C@H](COC(=O)/C(=C/C)CO)C12 (stereo partly specified)	> 100 µM (inactive)
O=C(CCN1CCCC1)CC(c1ccccc1)c1c(O)c2ccccc2oc1=O (stereo unspecified)	> 100 µM (inactive)
c1ccc2/c3[nH]/c(c2c1)=N\c1ccc(cc1)-c1nc2ccc(cc2o1)/N=c1/[nH]/c(c2ccccc12)=N/c1ccc2nc(oc2c1)-c1ccc(cc1)\N=3	35.1 µM (inactive)
CNc1ccc(C(=O)CC(O)CCC(C)C2OC(=O)CC(O)CC(=O)CC(O)CC(O)CC(O)CC(O)CC3(O)CC(O)C(C(=O)NCCN(C)C)C(CC(OC4OC(C)C(O)C(NC(=O)CN5CCN(C)CC5)C4O)\C=C/C=C\C=C/C=C/C=C/C=C\C=C/C2C)O3)cc1 (stereo unspecified)	2.08 µM (inactive)
Cc1nc2ccccc2n1CCc1nc2ccccc2s1	56.1 µM (inactive)
CSCCC(NCc1c(O)ccc2c(-c3ccccc3)cc(=O)oc12)C(=O)O (stereo unspecified)	> 100 µM (inactive)
CC1CCC(C(=O)O)(C(Br)C(=O)O)CC1 (stereo unspecified)	> 100 µM (inactive)
Cc1cccc(C(C)(C)C)c1NC(=O)CC1Sc2ccccc2NC1=O (stereo unspecified)	95.1 µM (inactive)

====

- System: OVCAR-3
- Assay explanation: NCI tumour cell line growth inhibition, 48 h
Active and inactive are the calls of the source. Rule as the data show it: active = GI50 up to about 1.1 µM and inactive = higher.
Experimental endpoint: GI50

                                   compound  assayed_target  experimental_endpoint       value_observed
0  COC(=O)c1cc2c(cc1Cl)Sc1nnc(Nc3ccccc3)n1S2(=O)=O         OVCAR-3                   GI50   1.75 µM (inactive)
1  CCN(CC)CCCC(C)Nc1ccnc2cc(Cl)ccc12 (stereo not given) [CHLOROQUINE PHOSPHATE]         OVCAR-3                   GI50   97.1 µM (inactive)
2  O=C1Cc2c(-c3ccccc3)cc(-c3ccc(Cl)cc3)nc2-c2ccccc2N1         OVCAR-3                   GI50   8.73 µM (inactive)
3  CCCC(=O)NC(Nc1ccc(F)cc1)(C(F)(F)F)C(F)(F)F         OVCAR-3                   GI50  > 100 µM (inactive)
4  O=C(NC(CS)C(=O)O)c1cccc2c(=O)c3ccccc3[nH]c12 (stereo not given)         OVCAR-3                   GI50  > 100 µM (inactive)
5  CC(=O)c1sc(-c2nc(C)c(C(=O)/C=C\c3ccc(/C=C\C(=O)c4sc(-c5nc(C)c(C(C)=O)s5)nc4C)cc3)s2)nc1C         OVCAR-3                   GI50  > 100 µM (inactive)
6  Cc1ccc(-c2cc(=O)c3cc(C)c(C)c(C(=O)O)c3o2)cc1[N+](=O)[O-]         OVCAR-3                   GI50  > 100 µM (inactive)
7                     CN(C)c1nc(N)nc(CCl)n1         OVCAR-3                   GI50   17.5 µM (inactive)
8  O=c1cc(N2CCN(c3cc(=O)n4ccccc4n3)CC2)oc2ccccc12         OVCAR-3                   GI50  > 100 µM (inactive)
9                   C#CC(=O)OCC#CCOC(=O)C#C         OVCAR-3                   GI50   17.9 µM (inactive)

Data origin, for the record: ChEMBL document CHEMBL1201862
